Molecular target: human JAK3 (a.a. 781-1124) (Homo sapiens, UniProt P52333)
Construct: JAK3 (a.a. 781-1124); His tag (N); made in house; host or cells: insect cells (baculovirus)
Sequence (P52333 781-1124): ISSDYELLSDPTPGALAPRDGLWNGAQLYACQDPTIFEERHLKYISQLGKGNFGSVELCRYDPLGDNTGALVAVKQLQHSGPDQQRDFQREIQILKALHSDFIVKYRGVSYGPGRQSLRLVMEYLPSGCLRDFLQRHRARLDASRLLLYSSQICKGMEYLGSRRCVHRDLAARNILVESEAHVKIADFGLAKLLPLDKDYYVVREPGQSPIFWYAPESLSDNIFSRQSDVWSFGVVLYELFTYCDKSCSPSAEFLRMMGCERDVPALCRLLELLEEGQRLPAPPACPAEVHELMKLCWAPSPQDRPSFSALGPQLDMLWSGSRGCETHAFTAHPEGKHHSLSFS
Experiment: In vitro JAK kinase assay (HTRF, phosphorylation of a biotinylated peptide), JAK3
Type: biochemical
Conditions: Table B1
Counter-ions that a name gives are not always drawn.
Decide using IC50 alone. Strictly below 300 nM: MET. Equal to or above 300 nM: NOT MET.

### Prompt Dear colleague, could you confirm whether IC50 of O=C(Nc1ccc2cc1CCc1cncc(c1)Nc1ncc(Cl)c(n1)N2)N1CCN(c2ncc(C(F)(F)F)cc2Cl)CC1 [Example B302, tris(trifluoroacetate)] falls below 300 nM? Thanks.
### Response NOT MET

### Prompt Dear colleague, could you confirm whether IC50 of O=C(Nc1ccc2cc1CCc1cccc(c1)Nc1ncc(Cl)c(n1)N2)NC1CCCNC1 (stereo not drawn) [Example B238, bis(trifluoroacetate)] falls below 300 nM? Thanks.
### Response MET

### Prompt Dear colleague, could you confirm whether IC50 of Cc1ncoc1C(=O)Nc1ccc2cc1CCc1cccc(c1)Nc1ncc(Cl)c(n1)N2 [Example B78, trifluoroacetate] falls below 300 nM? Thanks.
### Response MET

### Prompt Dear colleague, could you confirm whether IC50 of O=S(=O)(Nc1ccc2cc1CCc1cccc(c1)Nc1ncc(Cl)c(n1)N2)c1ccccc1Cl [Example B137, trifluoroacetate] falls below 300 nM? Thanks.
### Response MET

### Prompt Dear colleague, could you confirm whether IC50 of O=C(Nc1ccc2cc1CCc1cccc(c1)Nc1ncc(Cl)c(n1)N2)N[C@H]1CCN(C(=O)c2ccccc2)C1 [Example B170, trifluoroacetate] falls below 300 nM? Thanks.
### Response MET

### Prompt Dear colleague, could you confirm whether IC50 of NC1CCN(c2ccnc(Nc3ccc4cc3CCc3cccc(c3)Nc3ncc(Cl)c(n3)N4)n2)CC1 [Example B281, tris(trifluoroacetate)] falls below 300 nM? Thanks.
### Response NOT MET

Source listed as patent US8871753B2.
